System: SF-295 CNS
Assay: NCI tumour cell line growth inhibition, 48 h
# TGI values compiled below

Here is how some compounds turned out for TGI.
NNC(=O)Cc1cccnc1 = > 100 µM
C[C@@H]1O[C@@H](O[C@@H]2[C@@H](O)[C@H](OCCc3ccc(O)c(O)c3)O[C@H](COC(=O)/C=C/c3ccc(O)c(O)c3)[C@H]2O)[C@H](O)[C@H](O)[C@H]1O = > 100 µM

Enquiry: Sample O=C1CSC(c2cccc(Cl)c2)N1c1c(O)c(Cl)cc(Br)c1Cl (stereo not drawn) — what was its TGI?
Return: > 100 µM

###

Test system: NCI-H460 lung
I would appreciate it if you answered using one of these outcomes: YES = active, NO = inactive

Nc1nc(Nc2ccc3c(c2)CC[C@@H](N2CCCC2)CC3)nn1-c1cc2c(nn1)-c1ccccc1CCC2 = NO
C=C1C[C@@H]2C/C=C/C(=O)C/C(C)=C\C=C\C(=O)O[C@H](C=O)C/C(C)=C/[C@H](C1)O2 = NO
CC(C)(C)C(=O)Nc1ccccc1I(=O)=O = NO
COc1cc(NC(=O)c2cc(OC)c3ccn(C)c3c2)cc2c1C[C@]1(C)CC[C@@H](O)C(C)(C)[C@H]1O2 = NO
COc1cc(C(=O)O[C@H](C(=O)NCCNC(=O)[C@@H](OC(=O)c2cc(OC)cc3c(C)cccc23)[C@]2(C)CO2)[C@]2(C)CO2)c2cccc(C)c2c1 = YES
C=C1CC[C@@]2(C#N)[C@H]3[C@H](CC[C@@H]2C)[C@@H](C)C[C@@H](CC(C)(C)C#N)[C@H]13 = NO

Next item in the queue.
Enquiry: Test call for this molecule, please: "CC1(C)NCCC[C@]2(C)[C@H]3C=CC4=C5C[C@](C)(CO)CC[C@]5(C)CC[C@@]4(C)[C@]3(C)CC[C@@H]12"
Return: NO

###

System: M14 melanoma
Test: NCI tumour cell line growth inhibition, 48 h
Recorded TGI values for a group of compounds are listed next.

Nc1ccccc1/C=C\c1ccccc1 = > 100 µM
C\C=C/C=C/C=C/C(=O)O = > 100 µM
NC(CCl)=NC1CN2CCC1CC2 (stereo not drawn) = > 100 µM
C[C@@H]1O[C@@H](O[C@@H]2[C@@H](O)[C@H](OCCc3ccc(O)c(O)c3)O[C@H](COC(=O)/C=C/c3ccc(O)c(O)c3)[C@H]2O)[C@H](O)[C@H](O)[C@H]1O = > 100 µM
O=C1C(=Cc2ccco2)C(=O)C2CCCCC12 (stereo not drawn) = > 100 µM
N#CC(c1nc2ccccc2s1)c1nc(Cl)ncc1Br (stereo not drawn) = > 100 µM
CN(NC(=O)CC(=O)NN(C)C(=S)c1ccccc1)C(=S)c1ccccc1 = > 100 µM
N#CCc1ccc(C(C#N)/C(CCCC(=O)Nc2cccc([N+](=O)[O-])c2)=N\NC(=O)NN)cc1 (stereo not drawn) = > 100 µM

Enquiry: # query: TGI | item "Fc1ccc(Oc2nccc(-c3c(-c4ccc(F)cc4)ncn3C3CCNCC3)n2)cc1" | system: M14 melanoma
Return: > 25 µM

Enquiry: Record lookup: for M14 melanoma, what TGI belongs to COc1ccc2c(c1)C1Oc3ccccc3CC1(O)CO2 (stereo not drawn) ?
Return: > 100 µM

Enquiry: What is its TGI for M14 melanoma? Entry: CCN(CC)c1ccc2c(c1)Oc1ccc(N(C(C)=O)c3ccccc3)cc1C21OC(=O)c2ccccc21 (stereo not drawn)
Return: > 100 µM

Enquiry: Look up TGI with M14 melanoma for this compound: "CCSCC(=O)N1CCc2c([nH]c3ccccc23)C1=O"
Return: > 100 µM

Enquiry: API: value(readout=TGI, system=M14 melanoma) for record "c1ccc2c(c1)CCN(C1=NCCO1)C2"
Return: > 10 µM

###

Test system: U251 CNS
Assay: NCI tumour cell line growth inhibition, 48 h
Some compounds, each annotated with its measured TGI.

These recorded examples may help you get a feel for the data.
N#CN=C1c2ccccc2C(=NC#N)c2cc(CO)ccc21 = > 100 µM
C=C(C)[C@@H]1CC[C@]2(CO)CC[C@]3(C)[C@H](CC[C@@H]4[C@@]5(C)CC[C@H](O)C(C)(C)[C@@H]5CC[C@]43C)[C@@H]12 = 24.1 µM
C=C1C(=O)O[C@@H]2C1C[C@@H](O)/C(C)=C/C/C=C(\C)CCC[C@H](C)[C@H]2OC(C)=O (stereo partly drawn) = 52.4 µM

Enquiry: Using the record for O=C(CCCC1Cc2ccccc2C1=O)c1ccccc1 (stereo not drawn) , report its TGI.
Return: > 100 µM

Enquiry: Quick one: TGI of "CCN(CC)c1ccc(/C=c2\nc(-c3ccccc3)n3c2nc2ccccc23)cc1" ?
Return: > 100 µM

Enquiry: Quick check: TGI of CN1[C@@H]2CCCC[C@H]2N(C)P1(=O)C(O)/C=C/c1ccccc1 (stereo partly drawn) ?
Return: > 100 µM

Enquiry: Bench note: what TGI did N#CC1=C(N)N=C(N2CCCCC2)C(C#N)C12Nc1ccccc1S2 (stereo not drawn) show?
Return: > 100 µM

Enquiry: I would be grateful if you could share the reported TGI for Cc1ccc(C2(N3CCCC3)OC(C)(C)c3cccc4cccc2c34)cc1 (stereo not drawn) .
Return: 29.4 µM

Enquiry: Please report the recorded TGI for "Cc1cccc(C)c1NC(=O)CCCC(=O)CC(=O)/C=C/c1ccccc1" .
Return: > 100 µM

Enquiry: // query TGI value for entry "OCc1c2c(cc3c1CC1(C3)Cc3cc4c(c(CO)c3C1)CCC4)CCC2"
Return: 29.4 µM

Enquiry: What TGI value was documented for this compound, "CC(=O)OCSc1ncnc2c1ncn2CN1CCOCC1" ?
Return: > 100 µM

Enquiry: Requested field: TGI. Item: "COC(=O)c1c(O)ccc2c1c1c(n2Cc2ccc(OC)cc2)C(=O)c2ccccc2C1=O"
Return: 23.4 µM

Enquiry: Which TGI value belongs to "CN1c2ccccc2C(=O)NC12CCN(Cc1ccccc1)CC2" ?
Return: > 100 µM

Enquiry: # get_value(readout='TGI', item= "CCCc1ccc(S(=O)(=O)N[C@H]2CC[C@H]3[C@@H]4CCc5cc(O)ccc5[C@H]4CC[C@]23C)cc1" )
Return: 4.25 µM

Enquiry: Quick one: TGI of "Fc1ccc(Oc2nccc(-c3c(-c4ccc(F)cc4)ncn3C3CCNCC3)n2)cc1" ?
Return: > 25 µM

Enquiry: I would be grateful if you could share the reported TGI for "N#Cc1ccc(OC(=O)c2ccc(N=C(N)N)cc2)cc1" .
Return: > 100 µM

Enquiry: Give its TGI value. Item: COC(=O)C1=C(O)C(C(=O)OC)[C@]2(O)[C@H](C(=O)OC)[C@H]1C[C@@H](c1cccc(OC)c1)[C@H]2C(=O)OC (stereo partly drawn)
Return: 68.7 µM

Enquiry: Which TGI is reported for this compound? "CC(=O)NC1=C(Nc2ccc(C)cc2)C(=O)c2ccccc2C1=O"
Return: > 75 µM

Enquiry: Which TGI value is on record for CC1(CCc2ccccc2)CC1(Br)Br (stereo not drawn) ?
Return: > 100 µM

Enquiry: // query TGI value for entry N#Cc1ccccc1NC(=O)/C(=N\NC(=O)c1ccncc1)C(c1cnc2ccc([N+](=O)[O-])cc2n1)[N+](=O)[O-] (stereo not drawn)
Return: > 100 µM

Enquiry: Which TGI is reported for this compound? O=C1OC(C2Cc3ccccc3C2=O)c2ccccc21 (stereo not drawn)
Return: > 100 µM

###

# TGI annotations
Test system: RXF 393 renal
Assay: NCI tumour cell line growth inhibition, 48 h
Number in µM, nothing else.

Completed entries (count: 3):
N#CC1=C(N)N=C(N2CCCCC2)C(C#N)C12Nc1ccccc1S2 (stereo not given) = 65.1
COc1cc2c(c(OC)c1OC)-c1ccc(SC)c(=O)cc1[C@@H](NC(=O)c1ccc(OC(C)=O)cc1)CC2 = 0.0813
CC(=O)c1cc2c(s1)C(=O)c1scc(C(C)=O)c1C2=O = 1.54

// next item, TGI requested
Enquiry: Item under review: CSc1nc2c(c(=O)n1C)N=C(c1ccc(Cl)cc1)CC(c1ccccc1)N2 (stereo not given) . Reported TGI?
Return: 75.4

###

System: A549 NSCLC
Assay: NCI tumour cell line growth inhibition, 48 h
Measured TGI values are reported for all entries that follow.

CCOC(=O)Cc1csc(/N=C2\NC(=O)/C(=C3\C(=O)N(C)c4ccccc43)S2)n1 = > 100 µM
O=C(O)CCC(C(=O)O)N1C(=O)c2ccccc2C1=O (centres undefined) = > 100 µM
Nc1ccccc1/C=C\c1ccccc1 = > 100 µM
Nc1ccc(C(=O)c2ccc(N)c(Br)c2)cc1Br = 31.3 µM

Enquiry: Value lookup for TGI; key = "C[C@@H]1O[C@@H](O[C@@H]2[C@@H](O)[C@H](OCCc3ccc(O)c(O)c3)O[C@H](COC(=O)/C=C/c3ccc(O)c(O)c3)[C@H]2O)[C@H](O)[C@H](O)[C@H]1O"
Return: > 100 µM

Enquiry: Item "COC(=O)/C=C(C)/C=C/c1cc(C(C)=O)c(C)o1" has what recorded TGI?
Return: > 100 µM

Enquiry: # input compound: "COc1cc(C(=O)O[C@H](C(=O)NCCNC(=O)[C@@H](OC(=O)c2cc(OC)cc3c(C)cccc23)[C@]2(C)CO2)[C@]2(C)CO2)c2cccc(C)c2c1" ; wanted: its TGI
Return: 1.25 µM

Enquiry: What value of TGI has been reported for the following compound? "CC(C)=CCC/C(=C\CC/C(=C\CCc1ccoc1)C(=O)O)C(=O)O"
Return: > 100 µM

Enquiry: Any idea what TGI was measured for "C=CC[C@H]1C[C@@]2(C)OC[C@H](C(C)C)N2C1=O" ?
Return: > 100 µM

Values were extracted from PubChem BioAssay (NCI).
